experimentalSystem: human Factor IXa (human, UniProt P00740 47-191; P00740 227-461)
protocolDetails: cell-based or functional assay
Bridge positions count the residues as written; N and C are the ends. Square brackets hold non-standard residues; d marks the D form. Ends that are not written are not given here. * marks the point of attachment. NMeY = CN[C@@H](Cc1ccc(O)cc1)C(=O)O; Palmitoyl = CCCCCCCCCCCCCCCC(=O)*; NMeT = CN[C@H](C(=O)O)[C@@H](C)O
Give EC50 [µM], FXa generation assay for every item shown.

Field EC50 [µM], FXa generation assay (entry {Palmitoyl-(PEG)27}-KLTCLASYCWLF (cysteine pairing not given here) [Palmitoyl-(PEG)27-KLTCLASYCWLF] ) reads > 1 µM

Quick note, EC50 [µM], FXa generation assay for AVAINKVPCVASYCQLFESKIH landed at > 20 µM

Note to self: EC50 [µM], FXa generation assay recorded for PRIRTVSPGSRSASGKSTCLASYCWLFWTGIA was < 0.5 µM

Recorded result, KLTCLAS[NMeY]CWLF (cysteine pairing not given here) [KLTCLAS-MeTyr-CWLF] , EC50 [µM], FXa generation assay: > 20 µM

Recorded result, RRAPGKLTDLASYKWLFWTGIA-NH2 [RRAPGKLT-Asp-LASY-Lys-WLFWTGIA-CONH2] , EC50 [µM], FXa generation assay: < 0.5 µM

The measured EC50 [µM], FXa generation assay associated with SYGRTKLTCLASSCWLFGQVHG reads > 10 µM

Reported EC50 [µM], FXa generation assay for KLTCQASYCWLF was > 1 µM

EC50 [µM], FXa generation assay in this record for KLTCLASYCWLF-OH (disulfide 4-9 (inferred)) [KLTCLASYCWLF-COOH] : > 1 µM

# EC50 [µM], FXa generation assay (binder: RRAPGKLQCLASYCWLFWTGKA ) is > 5 µM

// EC50 [µM], FXa generation assay lookup, binder = RRAPGKLTCLASYCWLFSTPVARKSLRRHQPT (not fully specified (C-terminus); cysteine pairing not given here) [RRAPGKLTCLASYCWLF STPVA RKSLRRHQPT] , result: > 10 µM

For record RRAPGKL[NMeT]CLASYCWLFWTGIA (cysteine pairing not given here) [RRAPGKL-MeThr-CLASYCWLFWTGIA] the listed EC50 [µM], FXa generation assay is > 1 µM

Looking up SKQGRPISPD[dR]RAAGKLTCLASYCWLFWT (not fully specified; printed as SKQGRPISPDrRAAGKLTCLASYCWLFWT; cysteine pairing not given here) [SKQGRPISPDrRAAGKLTCLASYCWLFWT] , I found its EC50 [µM], FXa generation assay recorded as < 0.5 µM
